test system: West Nile (NY99); test: microbe, parasite or virus in culture; assay type: cell-based, West Nile virus; settings: West Nile virus, Huh-7; n = 1; read-out: Antiviral activity EC50
measured parameter: EC50 (µM)
Return type: number; implicit unit µM.

Looking for the measured EC50 of CCC(CC)COC(=O)[C@H](C)N[P@](=O)(OC[C@H]1O[C@@](C#N)(c2ccc3c(N)ncnn23)[C@H](O)[C@@H]1O)Oc1ccccc1 [RDV, Remdesivir] , can you help?
0.05

====

system: Marburg virus (Ci67); assay: microbe, parasite or virus in culture; assay type: cell-based; settings: Filoviridae, HeLa, read-out: Antiviral activity EC50
measured parameter: pEC50
The quantity pEC50 is defined as the negative base-10 logarithm of the molar concentration.

Looking for the measured pEC50 of "CCC(CC)COC(=O)[C@H](C)N[P@](=O)(OC[C@H]1O[C@@](C#N)(c2ccc3c(N)ncnn23)[C@H](O)[C@@H]1O)Oc1ccccc1" , can you help?
7.52
